procedure.summary: Microsome stability assay, mouse liver microsomes
Assay type: in vitro ADME
test.conditions: mouse, mouse liver microsomes, pooled; 1 μM compound, 0.5 mg/mL microsomal protein, NADPH, 37° C.; read-out: Microsome Stability Mouse liver microsomes Cl
Record form. Attribute: microsomal CLint at 1 μM. Fill in for each entry.

Example entries begin here.
> print(dat)
                                   molecule   recorded.value
1  Nc1cccc2c(NC(=O)c3ccc(C(F)(F)F)[nH]c3=O)cccc12 [Compound 228]  < 9.6 µL/min/mg
2  CCC[C@H]1Oc2cc(C)ccc2[C@@H]1NC(=O)c1ccc(C(F)(F)F)[nH]c1=O [Compound 358]    154 µL/min/mg
3  COc1ccc2c(c1)CC(OC)C2NC(=O)c1ccc(C(F)(F)F)[nH]c1=O (centres unmarked) [Compound 352]  < 9.6 µL/min/mg
4  CC[C@@H]1C[C@H](NC(=O)c2ccc(C(F)(F)F)[nH]c2=O)c2ccc(C)cc2N1 [Compound 366]  < 9.6 µL/min/mg
5  Cc1ccc2c(c1)Oc1cc(C)ccc1C2NC(=O)c1cc(OC2CCOCC2)c(C(F)(F)F)[nH]c1=O [Compound 260]  < 9.6 µL/min/mg

Below are 3 molecules. Give each one its microsomal CLint at 1 μM.
1. CCC[C@H]1C[C@@H](NC(=O)c2ccc(C(F)(F)F)[nH]c2=O)c2cc(C)ccc2N1 [Compound 362]
2. Cc1ccc2c(c1)[C@H](O)CC[C@H]2NC(=O)c1ccc(C(F)(F)F)[nH]c1=O [Compound 311]
3. O=C(NC1c2ccc(Cl)cc2Oc2cc(Cl)ccc21)c1ccc(C(F)(F)F)[nH]c1=O [Compound 50]

Result:
1: 12.1 µL/min/mg; 2: < 9.6 µL/min/mg; 3: < 9.6 µL/min/mg

---

Record form. Attribute: pIC50. Fill in for each entry.
target.system: HSD17B13 (Homo sapiens (Human), UniProt Q7Z5P4)
Sequence (Q7Z5P4 other isoform, or with tags, fused parts or gaps): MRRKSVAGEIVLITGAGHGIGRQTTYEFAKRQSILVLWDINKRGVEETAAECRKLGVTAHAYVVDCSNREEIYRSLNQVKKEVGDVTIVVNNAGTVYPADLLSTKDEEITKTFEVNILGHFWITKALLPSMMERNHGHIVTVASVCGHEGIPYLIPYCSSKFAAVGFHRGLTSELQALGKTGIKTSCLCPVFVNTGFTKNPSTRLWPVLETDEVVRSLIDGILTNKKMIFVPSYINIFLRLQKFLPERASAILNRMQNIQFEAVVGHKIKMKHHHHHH
procedure.summary: HSD17B13 enzymatic inhibition assay (150 nM or 50 nM HSD17B13)
Format: biochemical
test.conditions: 50 nM HSD17B13; read-out: Inhibition of 50 nM of HSD17B13 IC50
pIC50: −log10 of the molar value.

Example entries begin here.
> print(dat)
                                   compound                             target.system  experimental.endpoint  recorded.value
1  O=C(NC1c2ccc(Cl)cc2Oc2cccc(Cl)c21)c1ccc[nH]c1=O (stereo not drawn)  HSD17B13 (Homo sapiens (Human), UniProt Q7Z5P4)                  pIC50          < 5.00
2  Cc1ccc(C(NC(=O)c2c(C(F)(F)F)cc[nH]c2=O)c2ccc(C)cc2)cc1  HSD17B13 (Homo sapiens (Human), UniProt Q7Z5P4)                  pIC50          < 5.00

Now consider the entry below.
Task: Please list pIC50 recorded for the compound CN1CCC(c2ccc(C(NC(=O)c3ccc(C(F)(F)F)[nH]c3=O)c3ccccc3)cc2)CC1 (stereo not drawn)
Result: < 5.00

---

target.system: HSD17B13 (Homo sapiens (Human))
procedure.summary: HSD17B13 enzymatic inhibition assay (150 nM or 50 nM HSD17B13)
Type: biochemical
test.conditions: 50 nM HSD17B13; read-out: Inhibition of 50 nM of HSD17B13 IC50
experimental.endpoint: IC50 (nM)
One number for each entry, in nM.

Below are 6 molecules. Give each one its IC50.
1. O=C(NC(c1ccc(Br)cc1)c1ccc(Br)cc1)c1ccc(C(F)(F)F)[nH]c1=O
2. O=C(NC(c1ccccc1)C1CCCCC1)c1ccc(C(F)(F)F)[nH]c1=O (stereo not drawn)
3. COc1ccc2c(c1)-c1cc(OC)ccc1C2NC(=O)c1ccc(C(F)(F)F)[nH]c1=O
4. CCc1ccc2c(c1)Oc1ccccc1C2NC(=O)c1ccc(C(F)(F)F)[nH]c1=O (stereo not drawn) [Compound 140]
5. O=C(NC1CCCc2c(O)cccc21)c1ccc(SCc2cccc(C(F)(F)F)c2)[nH]c1=O (stereo not drawn)
6. Cc1ccc(C(NC(=O)c2ccc(C(F)(F)F)[nH]c2=O)c2ccccc2)cc1 (stereo not drawn)

Result:
1. 670
2. 2890
3. 1070
4. 200
5. 6870
6. 1060

---

Record form. Attribute: microsomal CLint at 1 μM. Fill in for each entry.
procedure.summary: Microsome stability assay, human liver microsomes
Format: in vitro ADME
test.conditions: human, human liver microsomes, pooled; 1 μM compound, 0.5 mg/mL microsomal protein, NADPH, 37° C.; read-out: Microsome Stability Human liver microsomes Cl

Example entries begin here.
> print(dat)
                                   molecule     experimental.endpoint   recorded.value
1  O=C(NC(c1ccccc1)c1ccc(CC(F)(F)F)cc1)c1ccc(C(F)(F)F)[nH]c1=O (stereo not drawn)  microsomal CLint at 1 μM  < 9.6 µL/min/mg
2  O=C(NC(c1ccccc1)c1ccc(C(F)(F)F)cc1)c1ccc(C(F)(F)F)[nH]c1=O (stereo not drawn)  microsomal CLint at 1 μM  < 9.6 µL/min/mg

Task: Please list microsomal CLint at 1 μM recorded for the molecule `O=C(NC(c1ccc(Cl)cc1)c1ccc(Cl)cc1)c1ccc(C(F)(F)F)[nH]c1=O`
Result: < 9.6 µL/min/mg

---

target.system: UniProt Q7Z5P4
procedure.summary: HSD17B13 enzymatic inhibition assay (150 nM or 50 nM HSD17B13)
Format: biochemical
test.conditions: 50 nM HSD17B13; read-out: Inhibition of 50 nM of HSD17B13 IC50
pIC50: −log10 of the molar value.
experimental.endpoint: pIC50

Example entries begin here.
> print(dat)
                                   molecule  experimental.endpoint  recorded.value
1  Cc1ccc2c(c1)S(=O)(=O)c1cccc(C)c1C2NC(=O)c1ccc(C(F)(F)F)[nH]c1=O (centres unmarked) [Compound 476]                  pIC50          < 5.00
2  O=C(NC(c1ccc(Cl)cc1)c1cnccn1)c1ccc(C(F)(F)F)[nH]c1=O (centres unmarked) [Compound 70]                  pIC50          < 5.00
3  Cc1ccc(C(NC(=O)c2cc(C(F)(F)F)c[nH]c2=O)c2ccc(C)cc2)cc1 [Compound 116]                  pIC50          < 5.00
4  Cc1ccc2c(c1)Oc1cc(C)ccc1C2NC(=O)c1ccc(C(C)(C)C)[nH]c1=O [Compound 486]                  pIC50          < 5.00

Now consider the entry below.
Task: State the measured pIC50 (UniProt Q7Z5P4) of O=C(NC(c1ccccc1)c1ccc(-c2cnccn2)cc1)c1ccc(C(F)(F)F)[nH]c1=O (centres unmarked) [Compound 101]
Result: 5.91

---

target.system: HSD17B13 (Homo sapiens (Human))
procedure.summary: HSD17B13 enzymatic inhibition assay (150 nM or 50 nM HSD17B13)
Format: biochemical
test.conditions: 50 nM HSD17B13; read-out: Inhibition of 50 nM of HSD17B13 IC50
experimental.endpoint: IC50

Example entries begin here.
> print(dat)
                                   molecule                    target.system  experimental.endpoint  recorded.value
1  O=C(NC(c1ccccc1)c1ccc2c(c1)CNCC2)c1ccc(C(F)(F)F)[nH]c1=O (stereo not drawn) [Compound 108]  HSD17B13 (Homo sapiens (Human))                   IC50         > 10 µM
2  CCc1cc(C(F)(F)F)[nH]c(=O)c1C(=O)NC1c2ccc(Cl)cc2Oc2cccc(Cl)c21 (stereo not drawn) [Compound 205]  HSD17B13 (Homo sapiens (Human))                   IC50         > 10 µM

Now consider the entry below.
Task: Please list IC50 recorded for the molecule COc1cc(C)cc2c1CCC2NC(=O)c1ccc(C(F)(F)F)[nH]c1=O (stereo not drawn) [Compound 256]
Result: > 10 µM

---

procedure.summary: Microsome stability assay, human liver microsomes
Type: in vitro ADME
test.conditions: human, human liver microsomes, pooled; 1 μM compound, 0.5 mg/mL microsomal protein, NADPH, 37° C.; read-out: Microsome Stability Human liver microsomes Cl
experimental.endpoint: microsomal CLint at 1 h, 1 µM (µL/min/mg)
Answers are plain numbers, in µL/min/mg.

> print(dat)
                                   compound          experimental.endpoint  recorded.value
1  CCC1CCc2cc(Cl)ccc2C1NC(=O)c1ccc(C(F)(F)F)[nH]c1=O (stereo not shown) [Compound 297]  microsomal CLint at 1 h, 1 µM             149

Below are 6 compounds. Give each one its microsomal CLint at 1 h, 1 µM.
1. COc1ccc2c(c1)CCC2NC(=O)c1ccc(C(F)(F)F)[nH]c1=O (stereo not shown) [Compound 134]
2. CCCC1Cc2cc(C)ccc2C(NC(=O)c2ccc(C(F)(F)F)[nH]c2=O)C1 (stereo not shown) [Compound 387]
3. COc1ccc2c(c1)CCCC2NC(=O)c1ccc(C(F)(F)F)[nH]c1=O (stereo not shown) [Compound 234]
4. COc1ccc(C(NC(=O)c2ccc(C(F)(F)F)[nH]c2=O)c2ccccc2)cc1 (stereo not shown) [Compound 26]
5. Cc1ccc(C(NC(=O)c2ccc(C(F)(F)F)[nH]c2=O)c2ccccc2)cc1C (stereo not shown) [Compound 2A]
6. O=C(NC(c1ccccc1)c1ccccc1O)c1ccc(C(F)(F)F)[nH]c1=O (stereo not shown) [Compound 35]

Result:
[410, 112, 369, 62.4, 515, 63.4]
